The origin of these recorded values is paper PMC12830165.

- targetOrSystem: ORC1-5 ORC1 R666W (human, UniProt Q13415;Q13416;Q9UBD5;O43929;O43913 400-861;1-577;1-711;1-436;1-435, R666W;N78S)
- test: fluorescence anisotropy; 1 mM ATP, 10 mM Mg acetate; 25 mM HEPES-KOH pH 7.6, 300 mM K glutamate, 10% glycerol, 1 mM DTT, 10 mM Mg acetate, 0.01% NP-40, 0 or 1 mM ATP, 1 nM DNA, 30 min at 22 °C; Hill fit (Kd,app)
- experimentalConditions: protein: recombinant; tags: 6xHis-TEV (ORC1) and MBP-TEV (ORC4), cleaved by TEV; copies: 1;1;1;1;1; label: 5' fluorescein-T on strand 1; blunt (40 bp; possible 1 nt 5' FluorT overhang)

binder: 40 bp fluorescein dsDNA (dsDNA) DNA 1: TTTTGAAAAGCAAGCATAAAAGATCTAAACATAAAATCTG DNA 2: CAGATTTTATGTTTAGATCTTTTATGCTTGCTTTTCAAAA
Kd, µM: 0.0499
